target: human mAChR M4 (Homo sapiens); construct: expressed in transfected cells; test: mAChR M4 cell-based functional assay (calcium mobilization, CHO-K1 hM4-Gqi5 cells); conditions: CHO-K1, % ACh maximum at 30 μM; human M4
Sequence (P08173 whole entry): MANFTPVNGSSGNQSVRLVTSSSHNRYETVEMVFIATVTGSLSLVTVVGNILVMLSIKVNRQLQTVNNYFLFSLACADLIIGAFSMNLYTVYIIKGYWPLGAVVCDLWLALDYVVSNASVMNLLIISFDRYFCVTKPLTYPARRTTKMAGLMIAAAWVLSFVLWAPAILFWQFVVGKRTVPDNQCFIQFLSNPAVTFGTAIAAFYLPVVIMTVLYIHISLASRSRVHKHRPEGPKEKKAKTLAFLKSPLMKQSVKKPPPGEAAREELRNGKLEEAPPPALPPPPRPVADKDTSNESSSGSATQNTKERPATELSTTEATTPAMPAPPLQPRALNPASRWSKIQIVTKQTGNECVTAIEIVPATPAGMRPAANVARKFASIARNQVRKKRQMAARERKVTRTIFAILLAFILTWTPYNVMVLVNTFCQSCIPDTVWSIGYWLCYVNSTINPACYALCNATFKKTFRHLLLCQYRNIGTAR
# maps each entry to its Emax at 30 µM

- Compound: "[2H]C([2H])(NC(=O)c1cc(C)c(N2CCc3ncc(C(F)(F)F)cc3C2)nn1)c1ccncc1"
  Emax at 30 µM, %: 112
- Compound: "Cc1cc(C(=O)NCc2nc3ccccc3s2)cnc1N1CCc2ncc(-c3cn(C)nc3C)cc2C1"
  Emax at 30 µM, %: 92
- Compound: "Cc1cc(C#N)nnc1N1CCc2ncc(N3CCC(C)n4nccc43)cc2C1 (centres unmarked)"
  Emax at 30 µM, %: 97
- Compound: "CCn1cc(-c2cnc3c(c2)CN(c2ncc(C#N)cc2C)CC3)cn1"
  Emax at 30 µM, %: 98
- Compound: "Cc1cc(C(=O)N2CC(C)(F)C2)nnc1N1CCc2ncc(-n3cccn3)cc2C1"
  Emax at 30 µM, %: 78
- Compound: "Cc1cnc2c(c1)CN(c1nnc(C(=O)Nc3ccncc3)c(C)c1C)CC2"
  Emax at 30 µM, %: 98
- Compound: "Cc1cc(C#N)cnc1N1CCc2ncc(-c3cnn(C4CC4)c3)cc2C1"
  Emax at 30 µM, %: 95
- Compound: "Cc1cc(C(=O)NCc2ccc(Cl)nc2Cl)cnc1N1CCc2ncc(-c3cn(C)nc3C)cc2C1"
  Emax at 30 µM, %: 72
- Compound: "Cc1cc(C(=O)NCc2cccc(F)c2)cnc1N1CCc2ncccc2C1"
  Emax at 30 µM, %: 69
- Compound: "O=C(NCc1ccncc1)c1ccc(N2CCc3ncc(C(F)(F)F)cc3C2)nn1"
  Emax at 30 µM, %: 75
- Compound: "Cc1nc(C)c(C)c(N2CCc3ncc(Oc4ccccc4F)cc3C2)n1"
  Emax at 30 µM, %: 87
- Compound: "Cc1cc(C#N)nnc1N1CCc2ncc(N3CC(C)Cn4nccc43)cc2C1 (centres unmarked)"
  Emax at 30 µM, %: 98
- Compound: "Cc1cc(C(=O)N2CC3(COC3)C2)nnc1N1CCc2ncc(-n3cccn3)cc2C1"
  Emax at 30 µM, %: 85
- Compound: "Cc1cc(C(=O)NC2CCc3ncccc3C2)nnc1N1CCc2ncc(C(F)(F)F)cc2C1 (centres unmarked)"
  Emax at 30 µM, %: 109
- Compound: "Cc1c(C#N)nnc(N2CCc3ncc(-c4ccc(Cl)nc4)cc3C2)c1C"
  Emax at 30 µM, %: 53
- Compound: "Cc1nc(Cl)c(C)c(N2Cc3cc(Nc4ccnn4C)cnc3C(C)(C)C2)n1"
  Emax at 30 µM, %: 58
- Compound: "Cc1nn(C)cc1-c1cnc2c(c1)CN(c1nnc(C#N)c(C)c1C)CC2"
  Emax at 30 µM, %: 95

Data provenance: patent US20250230155A1
